- Study system: Gag-Pol polyprotein (Human immunodeficiency virus type 1 group M subtype B (isolate HXB2)) (UniProt P04585)
- Assay overview: RNase H inhibition, HIV 1 Gag Pol polyprotein, FRET biochemical assay, screening (AID 372)
- Experimental setup: HIV-1 RT RNase H, FRET RNA/DNA substrate fluorescence; at 10 µM
About 770 (0.77%) of roughly 100,000 compounds were called active. No stated cut-off is given here; in the data, active means inhibition above about 50%; inactive means the rest. This is one part of a sample in which actives are shown more often than they occur.
Outcome codes: active, inactive

INSERT INTO measurements (compound, class_name) VALUES
  ('COc1ccc(N2CCSC2c2ccco2)cc1 (configuration not stated)', 'inactive'),
  ('O=C(NCCOc1cccc2ccccc12)Nc1cc(F)c(F)cc1Cl', 'inactive'),
  ('S=C(NCCOc1cccc2ccccc12)Nc1cccc2ccccc12', 'inactive'),
  ('CS(=O)(=O)N1CCN(Cc2ccccc2Cl)CC1', 'inactive'),
  ('CCc1c(C)sc(NC(=O)C2CCCCC2C(=O)O)c1C(N)=O (configuration not stated)', 'inactive'),
  ('CCc1c(C)sc(NC(=O)C2CC3CCC2C3)c1C#N (configuration not stated)', 'inactive'),
  ('CCOc1ccccc1N=C1C(=O)Nc2ccc([N+](=O)[O-])cc21', 'inactive'),
  ('CCOc1ccc(C(=O)NC(=S)Nc2ccc(Cl)cn2)cc1Cl', 'active'),
  ('COc1ccc(C(=O)NC(=S)Nc2nc(-c3ccccc3)cs2)cc1Cl', 'inactive'),
  ('O=C(NCCOc1cccc2ccccc12)Nc1cccc2ccccc12', 'active'),
  ('COc1cc(C2C(C(=O)/C=C/c3ccccc3)=C(O)C(=O)N2c2ccccn2)ccc1O (configuration not stated)', 'inactive'),
  ('CCc1c(C)sc(NC(=O)C2CCCCC2C(=O)O)c1C#N (configuration not stated)', 'active');

###

inhibition values for the compounds below.
- Study system: Gag-Pol polyprotein (Human immunodeficiency virus type 1 group M subtype B (isolate HXB2)) (UniProt P04585)
- Assay overview: RNase H inhibition, HIV 1 Gag Pol polyprotein, FRET biochemical assay, screening (AID 372)
- Experimental setup: HIV-1 RT RNase H, FRET RNA/DNA substrate fluorescence; at 10 µM; active compounds read high
Out of some 100,000 compounds screened, about 770 (0.77%) were called active. Only a selection was taken, and actives are over-represented in it overall.
Property: inhibition (%)

INSERT INTO assay_data (compound, property, measurement) VALUES
  ('COc1ccc(-c2nc(-c3ccccn3)no2)cc1OC', 'inhibition', 10),
  ('O=C(/C=C/c1ccco1)Nc1nc2ccc(Br)cc2s1', 'inhibition', 59),
  ('Cc1ccc(/C=C2\SC(=S)N(CCC(=O)Nc3cc([N+](=O)[O-])ccc3O)C2=O)cc1', 'inhibition', 0),
  ('CCCC(=O)Nc1c(C)ccc2nsnc12', 'inhibition', 0),
  ('Cc1ccc(NC(=O)C(C(C)C)N2C(=O)c3ccccc3C2=O)c(C)c1 (configuration not stated)', 'inhibition', 12),
  ('O=C(/C=C/c1ccco1)Nc1nc(-c2ccc(Br)cc2)cs1', 'inhibition', 15),
  ('N#C/C(=C/c1cn(-c2ccccc2)nc1-c1cc2ccccc2oc1=O)C(N)=O', 'inhibition', 8),
  ('O=C(O)CC(C(=O)O)N1C(=O)/C(=C\C(Cl)=C/c2ccc([N+](=O)[O-])cc2)SC1=S (configuration not stated)', 'inhibition', 14),
  ('CCC(Sc1nc2ccccc2s1)C(=O)Nc1ccc([N+](=O)[O-])cc1 (configuration not stated)', 'inhibition', 10),
  ('CCN1C(=O)c2cccc3c(NC(=O)c4cc([N+](=O)[O-])ccc4Cl)ccc1c23', 'inhibition', 5),
  ('COc1ccc(I)cc1S(=O)(=O)N1CCN(c2ccc(F)cc2)CC1', 'inhibition', 16),
  ('O=C(/C=C/c1ccco1)Nc1ccc(C(=O)Nc2cccc(-c3nc4ccccc4o3)c2)cc1', 'inhibition', 55),
  ('CCOc1ccc(-n2sc3c(c2=S)-c2ccc(OC)cc2NC3(C)C)cc1', 'inhibition', 2),
  ('Cc1ccc(S(=O)(=O)Nc2ccc(S(=O)(=O)N3CCOCC3)cc2)cc1[N+](=O)[O-]', 'inhibition', 0),
  ('O=[N+]([O-])c1ccccc1S(=O)(=O)Nc1ccc(S(=O)(=O)N2CCCCC2)cc1', 'inhibition', 0),
  ('Oc1c(C=Nc2ccccc2)sc2ccccc12', 'inhibition', 4),
  ('O=[N+]([O-])c1ccccc1S(=O)(=O)Nc1ccc(S(=O)(=O)N2CCOCC2)cc1', 'inhibition', 51),
  ('N#CC(C#N)=Cc1cn(-c2ccccc2)nc1-c1cc2ccccc2oc1=O', 'inhibition', 56),
  ('Cc1ccc2oc(-c3cccc(NC(=O)/C=C/c4ccco4)c3)nc2c1', 'inhibition', 6),
  ('CCC(CC)C(=O)Nc1ccc(Cl)cc1Cl', 'inhibition', 13),
  ('CCCCNCCCCOc1ccccc1C(C)(C)C', 'inhibition', 8),
  ('Cc1cccc2c1[nH]c1nc(N/N=C\c3cccc(O)c3)nnc12', 'inhibition', 14);

###

- Study system: Gag-Pol polyprotein (Human immunodeficiency virus type 1 group M subtype B (isolate HXB2)) (UniProt P04585)
- Assay overview: RNase H inhibition, HIV 1 Gag Pol polyprotein, FRET biochemical assay, screening (AID 372)
- Experimental setup: HIV-1 RT RNase H, FRET RNA/DNA substrate fluorescence; at 10 µM
Screen size: about 100,000 compounds; about 770 (0.77%) were called active. Rule as the data show it: active = inhibition above about 50%; inactive = the rest. The sample holds actives, similar compounds and a random draw of the others, so the mix is not that of the screen.
Outcome codes: active, inactive

INSERT INTO measurements (compound, class_name) VALUES
  ('CC1CC(=O)C2=C(C1)OC(N)=C(C#N)C2c1ccc(C(F)(F)F)cc1 (stereo unspecified)', 'inactive'),
  ('Oc1[nH]c2ccc(Br)cc2c1N=Nc1ccccn1', 'inactive'),
  ('O=S(=O)(Nc1nc2ccccc2s1)c1cccc2cccnc12', 'inactive'),
  ('COc1ccccc1C1NC(=O)NC(C)=C1C(=O)OC(C)C (stereo unspecified)', 'inactive'),
  ('Oc1[nH]c2ccc(Br)cc2c1N=Nc1ccc2ccccc2n1', 'active'),
  ('COc1cc2ccccc2cc1C(=O)Nc1ccc2c(c1)C(=O)c1ccccc1C2=O', 'inactive'),
  ('C#CCOc1ccc(/C=C2/C(=O)NC(=O)N(c3ccccc3F)C2=O)cc1', 'inactive'),
  ('CCOC(=O)c1c(N)n(CCOC)c2nc3ccccc3nc12', 'inactive'),
  ('Cc1ccc(NC(=O)/C=C/c2ccc(Cl)cc2)cc1', 'inactive'),
  ('Cc1ccc(C(=O)Nc2cc(C)cc(C)c2)cc1', 'inactive'),
  ('CC1CCN(C(=O)CCCN2C(=O)c3cccc4cccc(c34)C2=O)CC1', 'active');
